- test summary: H1N1 influenza NS1A inhibitors, functional cell based assay (AID 504329)
- stated conditions: percent inhibition, at 12.5 µM, hits give high values
In all, about 340,000 compounds went through this assay and about 1,000 (0.29%) were called active. These entries were drawn from the full list. Results with a measured potency or affinity are listed apart.
Recorded inhibition values for a group of compounds are listed next.
// note: answer is a bare numeric in %

Sample records with inhibition:
>>> df
                                   compound  measurement_units  test_result
0     CC(C)Oc1cccnc1N(C)C1CCN(Cc2ccccc2)CC1                  %         7.67
1  COC(=O)C1=C(C)OC(N)=C(C#N)C1c1cc2cc(C)ccc2nc1Cl (configuration not stated)                  %         11.8
2  COc1ccc(N(CC(=O)NC2CCCCC2)S(=O)(=O)c2cccnc2)cc1                  %        -1.53
3  O=C1CC(=C(c2ccccc2)c2ccccc2)C(=O)N1CCCCN1CCN(c2ccccc2)CC1                  %         0.53

### Prompt Quick one: inhibition of CCOC(=O)C1=C(C)OC(N)=C(C#N)C1c1cc2cc(C)ccc2nc1N1CCCCC1 (configuration not stated) ?
### Response -5.59

### Prompt Quick one: inhibition of OC(COCc1ccccc1)CN1CCCC1 (configuration not stated) ?
### Response -16.3

### Prompt Quick one: inhibition of Oc1c(CNc2ccccc2)cc(COCc2ccccc2)c2cccnc12 ?
### Response -1.39

### Prompt Quick one: inhibition of CCc1ccc(C2C(C#N)=C(N)Oc3cc(N)ccc32)cc1 (configuration not stated) ?
### Response 0.13

### Prompt Quick one: inhibition of N#CC1=C(N)Oc2c(ccc3cccnc23)C1c1ccccc1 (configuration not stated) ?
### Response 25.4

### Prompt Quick one: inhibition of C[n+]1cccc(C2C(C#N)=C(N)Oc3c2ccc2ccccc32)c1 (configuration not stated) ?
### Response -17.7

The measured values listed here are drawn from PubChem BioAssay AID504329.
